src = paper PMC7419507

# protocol.details: Cytotoxicity assay (CellTiter-Glo, 72 h), Jurkat
# Type: cell-based
# measurement.context: human, Jurkat cells (T lymphoma), conc 6.25 uM, raw data (replicates)
Reported viability at 72 h, 6.25 uM values for the following compounds.

compound	viability at 72 h, 6.25 uM [%]
CO[C@@H]1C[C@H](C[C@@H](C)[C@@H]2CC(=O)[C@H](C)/C=C(\C)[C@@H](O)[C@@H](OC)C(=O)[C@H](C)C[C@H](C)/C=C/C=C/C=C(\C)[C@H](O)C[C@@H]3CC[C@@H](C)[C@@](O)(O3)C(=O)C(=O)N3CCCC[C@H]3C(=O)O2)CC[C@H]1O [Compound 17, (16R)-16-O-demethyl rapamycin]	28.5
CO[C@H]1C[C@@H]2CC[C@@H](C)[C@@](O)(O2)C(=O)C(=O)N2CCCC[C@H]2C(=O)O[C@H]([C@H](C)C[C@@H]2CC[C@@H](O)[C@H](OC)C2)CC(=O)[C@H](C)/C=C(\C)[C@@H](O)[C@@H](OC)C(=O)[C@H](C)C[C@H](C)/C=C/C=C/C=C/1C [Compound 1, rapamycin, reference compound]	20.6
COC1CC2CCC(C)C(O)(O2)C(=O)C(=O)N2CCCCC2C(=O)OC(C(C)CC2CCC(O)C(OC)C2)CC(=O)C(C)C=C(C)C(O)CC(=O)C(C)C=C(C)C=CC=CC=C1C (centres unmarked)	45.6
COC1CC2CCC(C)C(O)(O2)C(=O)C(=O)N2CCCCC2C(=O)OC(C(C)CC2CCC(O)C(OC)C2)CC(O)CC(=O)C(C)C=C(C)C(O)CC(=O)C(C)CC(C)C=CC=CC=C1C (centres unmarked)	29.2
COC1CC2CCC(C)C(O)(O2)C(=O)C(=O)N2CCCCC2C(=O)OC(C(C)CC2CCC(O)C(OC)C2)CC(=O)C(C)C=C(C)C(O)C(OC)C(=O)C(C)CC(C)C=CCCC=C1C (centres unmarked)	26.6

----------
Reported viability at 72 h, 9.53674e-05 uM values for the following compounds.
# protocol.details: Cytotoxicity assay (CellTiter-Glo, 72 h), SKOV-3
# Format: cell-based, human
# measurement.context: human, SKOV-3 cells (ovarian adenocarcinoma), conc 9.53674e-5 uM; raw replicate data; read-out: SKOV3 viability (%)
assay.endpoint: viability at 72 h, 9.53674e-05 uM (%)

compound	assay.value
CO[C@@H]1/C=C/C=C/[C@@H](C)C[C@@H](C)C(=O)C[C@H](O)/C(C)=C/[C@@H](C)C(=O)C[C@@H]([C@H](C)C[C@@H]2CC[C@@H](O)[C@H](OC)C2)OC(=O)[C@@H]2CCCCN2C(=O)C(=O)[C@]2(O)O[C@@H](CC[C@H]2C)C1	103
COC1CC2CCC(C)C(O)(O2)C(=O)C(=O)N2CCCCC2C(=O)OC(C(C)CC2CCC(O)C(OC)C2)CC(=O)C(C)C=C(C)C(O)C(OC)C(=O)C(C)CC(C)C=CCCC=C1C (centres unmarked)	106
COC1CC2CCC(C)C(O)(O2)C(=O)C(=O)N2CCCCC2C(=O)OC(C(C)CC2CCC(O)C(OC)C2)CC(O)CC(=O)C(C)C=C(C)C(O)CC(=O)C(C)CC(C)C=CC=CC=C1C (centres unmarked)	101
CO[C@@H]1C[C@H](C[C@@H](C)[C@@H]2CC(=O)[C@H](C)/C=C(\C)[C@@H](O)[C@@H](OC)C(=O)[C@H](C)C[C@H](C)/C=C/C=C/C=C(\C)[C@H](O)C[C@@H]3CC[C@@H](C)[C@@](O)(O3)C(=O)C(=O)N3CCCC[C@H]3C(=O)O2)CC[C@H]1O [Compound 17, (16R)-16-O-demethyl rapamycin]	108
COC1CC2CCC(C)C(O)(O2)C(=O)C(=O)N2CCCCC2C(=O)OC(C(C)CC2CCC(O)C(OC)C2)CC(=O)C(C)C=C(C)C(O)CC(=O)C(C)C=C(C)C=CC=CC=C1C (centres unmarked)	105
